Target: Neuronal acetylcholine receptor subunit alpha-7 (Homo sapiens)
Assay: Ratio of Silent agonist activity at human alpha7 nAChR expressed in Xenopus laevis oocytes assessed as increase in net charge in presence of type 2 PAM PNU-120596 relative to ACh to partial agonist activity at human alpha7 nAChR expressed in Xenopus laevis oocytes assessed as increase in net charge relative to ACh
Assay type: cell-based
Mark class 1 for Ratio under 60, class 0 if at or over.

[
  {
    "compound": "C[N+]12CCC(CC1)C(Cc1nc(-c3ccncc3)no1)C2 (configuration not stated)",
    "assayed-target": "Neuronal acetylcholine receptor subunit alpha-7 (Homo sapiens)",
    "qualitative-label": "class 1"
  },
  {
    "compound": "c1coc(-c2noc(CC3CN4CCC3CC4)n2)c1 (configuration not stated)",
    "assayed-target": "Neuronal acetylcholine receptor subunit alpha-7 (Homo sapiens)",
    "qualitative-label": "class 1"
  },
  {
    "compound": "Fc1cccc(-c2noc(CC3CN4CCC3CC4)n2)c1 (configuration not stated)",
    "assayed-target": "Neuronal acetylcholine receptor subunit alpha-7 (Homo sapiens)",
    "qualitative-label": "class 1"
  },
  {
    "compound": "Cc1cccc(-c2noc(CC3CN4CCC3CC4)n2)c1 (configuration not stated)",
    "assayed-target": "Neuronal acetylcholine receptor subunit alpha-7 (Homo sapiens)",
    "qualitative-label": "class 0"
  },
  {
    "compound": "C[N+]12CCC(CC1)C(Cc1nc(-c3cccc(I)c3)no1)C2 (configuration not stated)",
    "assayed-target": "Neuronal acetylcholine receptor subunit alpha-7 (Homo sapiens)",
    "qualitative-label": "class 1"
  },
  {
    "compound": "c1cncc(-c2noc(CC3CN4CCC3CC4)n2)c1 (configuration not stated)",
    "assayed-target": "Neuronal acetylcholine receptor subunit alpha-7 (Homo sapiens)",
    "qualitative-label": "class 1"
  },
  {
    "compound": "COc1ccc(-c2noc(CC3CN4CCC3CC4)n2)cc1 (configuration not stated)",
    "assayed-target": "Neuronal acetylcholine receptor subunit alpha-7 (Homo sapiens)",
    "qualitative-label": "class 1"
  },
  {
    "compound": "C[N+]12CCC(CC1)C(Cc1nc(-c3cccc(Cl)c3)no1)C2 (configuration not stated)",
    "assayed-target": "Neuronal acetylcholine receptor subunit alpha-7 (Homo sapiens)",
    "qualitative-label": "class 1"
  }
]

Q: In the record for Cc1noc(CC2C[N+]3(C)CCC2CC3)n1 (configuration not stated) , is Ratio less than 60?
A: class 0

Q: In the record for Cc1noc(CC2CN3CCC2CC3)n1 (configuration not stated) , is Ratio less than 60?
A: class 0

Q: In the record for c1cc(-c2noc(CC3CN4CCC3CC4)n2)ccn1 (configuration not stated) , is Ratio less than 60?
A: class 1

Q: In the record for Cc1cccc(-c2noc(CC3C[N+]4(C)CCC3CC4)n2)c1 (configuration not stated) , is Ratio less than 60?
A: class 1

---

Biological target: Neuronal acetylcholine receptor subunit alpha-7 (Homo sapiens)
Experiment: Partial agonist activity at human alpha7 nAChR expressed in Xenopus laevis oocytes assessed as increase in peak current amplitude at 30 uM at -60 mV holding potential treated for 12 secs followed by compound washout for 181 secs by whole cell two electrode voltage-clamp assay relative to ACh
Format: cell-based
observed-property: fold change (FC)
Keep the answer to the number alone.

See these solved cases before continuing.
[
  {
    "molecule": "c1cncc(-c2noc(CC3CN4CCC3CC4)n2)c1 (configuration not stated)",
    "fold change (FC)": 0.867
  },
  {
    "molecule": "COc1cccc(-c2noc(CC3CN4CCC3CC4)n2)c1 (configuration not stated)",
    "fold change (FC)": 1.42
  }
]

Q: Give the measured fold change (FC) of Cc1cccc(-c2noc(CC3C[N+]4(C)CCC3CC4)n2)c1 (configuration not stated) .
A: 0.079

Q: Give the measured fold change (FC) of C[N+]12CCC(CC1)C(Cc1nc(-c3cccs3)no1)C2 (configuration not stated) .
A: 0.103

Q: Give the measured fold change (FC) of c1csc(-c2noc(CC3CN4CCC3CC4)n2)c1 (configuration not stated) .
A: 2.06

Q: Give the measured fold change (FC) of c1ccc(-c2noc(CC3CN4CCC3CC4)n2)cc1 (configuration not stated) .
A: 1.3

Q: Give the measured fold change (FC) of COc1ccc(-c2noc(CC3C[N+]4(C)CCC3CC4)n2)cc1 (configuration not stated) .
A: 0.051

---

Biological target: Neuronal acetylcholine receptor subunit alpha-7 (Homo sapiens, UniProt P36544)
Sequence (P36544 whole entry): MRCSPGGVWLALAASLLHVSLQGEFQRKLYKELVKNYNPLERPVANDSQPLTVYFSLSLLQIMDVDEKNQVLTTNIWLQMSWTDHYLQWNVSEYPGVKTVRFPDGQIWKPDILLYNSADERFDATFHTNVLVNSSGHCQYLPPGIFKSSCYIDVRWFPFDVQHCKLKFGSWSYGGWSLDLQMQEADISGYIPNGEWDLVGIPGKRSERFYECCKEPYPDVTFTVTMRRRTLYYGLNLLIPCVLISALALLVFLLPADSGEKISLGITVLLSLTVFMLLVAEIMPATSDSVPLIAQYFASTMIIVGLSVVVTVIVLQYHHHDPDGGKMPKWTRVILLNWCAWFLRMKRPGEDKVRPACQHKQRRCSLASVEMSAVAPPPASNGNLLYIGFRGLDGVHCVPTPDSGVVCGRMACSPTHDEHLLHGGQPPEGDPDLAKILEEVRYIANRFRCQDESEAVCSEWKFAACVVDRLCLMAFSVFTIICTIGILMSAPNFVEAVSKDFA
Assay: Ratio of partial agonist activity at human alpha7 nAChR expressed in Xenopus laevis oocytes assessed as increase in peak current amplitude relative to ACh to partial agonist activity at human alpha7 nAChR expressed in Xenopus laevis oocytes assessed as increase in net charge relative to ACh
Format: cell-based
observed-property: Ratio
Keep the answer to the number alone.

[
  {
    "compound": "C[N+]12CCC(CC1)C(Cc1nc(-c3cccs3)no1)C2 (stereo not drawn)",
    "assayed-target": "Neuronal acetylcholine receptor subunit alpha-7 (Homo sapiens, UniProt P36544)",
    "Ratio": 0.81
  },
  {
    "compound": "COc1cccc(-c2noc(CC3C[N+]4(C)CCC3CC4)n2)c1 (stereo not drawn)",
    "assayed-target": "Neuronal acetylcholine receptor subunit alpha-7 (Homo sapiens, UniProt P36544)",
    "Ratio": 0.92
  }
]

Moving on to another compound below.
Q: Recall the recorded Ratio for C[N+]12CCC(CC1)C(Cc1nc(-c3cccnc3)no1)C2 (stereo not drawn) with Neuronal acetylcholine receptor subunit alpha-7 (Homo sapiens, UniProt P36544) and state it.
A: 0.48

---

molecules and their reported fold change (FC)
Target: Neuronal acetylcholine receptor subunit alpha-7 (Homo sapiens, UniProt P36544)
Assay: Silent agonist activity at human alpha7 nAChR expressed in Xenopus laevis oocytes assessed as increase in net charge at 30 uM at -60 mV holding potential treated for 12 secs followed by compound washout for 181 secs in presence of type 2 PAM PNU-120596 by whole cell two electrode voltage-clamp assay relative to ACh
Format: cell-based
Keep the answer to the number alone.

See these solved cases before continuing.
[
  {
    "molecule": "c1csc(-c2noc(CC3CN4CCC3CC4)n2)c1 (configuration not stated)",
    "fold change (FC)": 5
  },
  {
    "molecule": "C[N+]12CCC(CC1)C(Cc1nc(-c3cccs3)no1)C2 (configuration not stated)",
    "fold change (FC)": 0.2
  },
  {
    "molecule": "COc1ccc(-c2noc(CC3CN4CCC3CC4)n2)cc1 (configuration not stated)",
    "fold change (FC)": 1.6
  }
]

Q: Recall the recorded fold change (FC) for COc1ccc(-c2noc(CC3C[N+]4(C)CCC3CC4)n2)cc1 (configuration not stated) with Neuronal acetylcholine receptor subunit alpha-7 (Homo sapiens, UniProt P36544) and state it.
A: 2.2

Q: Recall the recorded fold change (FC) for c1cc(-c2noc(CC3CN4CCC3CC4)n2)ccn1 (configuration not stated) with Neuronal acetylcholine receptor subunit alpha-7 (Homo sapiens, UniProt P36544) and state it.
A: 25.5

Q: Recall the recorded fold change (FC) for Cc1cccc(-c2noc(CC3C[N+]4(C)CCC3CC4)n2)c1 (configuration not stated) with Neuronal acetylcholine receptor subunit alpha-7 (Homo sapiens, UniProt P36544) and state it.
A: 1.2

Q: Recall the recorded fold change (FC) for C[N+]12CCC(CC1)C(Cc1nc(-c3cccc(C(F)(F)F)c3)no1)C2 (configuration not stated) with Neuronal acetylcholine receptor subunit alpha-7 (Homo sapiens, UniProt P36544) and state it.
A: 0.1

---

Target: Neuronal acetylcholine receptor subunit alpha-7 (Homo sapiens)
Assay: Partial agonist activity at human alpha7 nAChR expressed in Xenopus laevis oocytes assessed as increase in net charge at 30 uM at -60 mV holding potential treated for 12 secs followed by compound washout for 181 secs by whole cell two electrode voltage-clamp assay relative to ACh
Assay type: cell-based
Decision: fold change (FC) compared against 0.08; not below it gives TRUE, below it gives FALSE.

Reference set (5 entries):
[
  {
    "molecule": "c1cncc(-c2noc(CC3CN4CCC3CC4)n2)c1 (centres undefined)",
    "assayed-target": "Neuronal acetylcholine receptor subunit alpha-7 (Homo sapiens)",
    "qualitative-label": "TRUE"
  },
  {
    "molecule": "C[N+]12CCC(CC1)C(Cc1nc(-c3cccs3)no1)C2 (centres undefined)",
    "assayed-target": "Neuronal acetylcholine receptor subunit alpha-7 (Homo sapiens)",
    "qualitative-label": "TRUE"
  },
  {
    "molecule": "C[N+]12CCC(CC1)C(Cc1nc(-c3cccc(F)c3)no1)C2 (centres undefined)",
    "assayed-target": "Neuronal acetylcholine receptor subunit alpha-7 (Homo sapiens)",
    "qualitative-label": "FALSE"
  },
  {
    "molecule": "C[N+]12CCC(CC1)C(Cc1nc(-c3ccccc3)no1)C2 (centres undefined)",
    "assayed-target": "Neuronal acetylcholine receptor subunit alpha-7 (Homo sapiens)",
    "qualitative-label": "TRUE"
  },
  {
    "molecule": "Ic1cccc(-c2noc(CC3CN4CCC3CC4)n2)c1 (centres undefined)",
    "assayed-target": "Neuronal acetylcholine receptor subunit alpha-7 (Homo sapiens)",
    "qualitative-label": "TRUE"
  }
]

Q: Has C[N+]12CCC(CC1)C(Cc1nc(-c3cccc(Br)c3)no1)C2 (centres undefined) a recorded fold change (FC) greater than or equal to 0.08?
A: TRUE

Q: Has Cc1cccc(-c2noc(CC3CN4CCC3CC4)n2)c1 (centres undefined) a recorded fold change (FC) greater than or equal to 0.08?
A: TRUE

Q: Has C[N+]12CCC(CC1)C(Cc1nc(-c3cccc(C(F)(F)F)c3)no1)C2 (centres undefined) a recorded fold change (FC) greater than or equal to 0.08?
A: FALSE

Q: Has COc1cccc(-c2noc(CC3CN4CCC3CC4)n2)c1 (centres undefined) a recorded fold change (FC) greater than or equal to 0.08?
A: TRUE

Q: Has Clc1cccc(-c2noc(CC3CN4CCC3CC4)n2)c1 (centres undefined) a recorded fold change (FC) greater than or equal to 0.08?
A: TRUE

Value source: ChEMBL document CHEMBL4308856
